Biological target: plasma protein
Assay: plasma ultrafiltration (Centrifree), LC-MS/MS; peptide 0.1 uM
Positions of bridges follow the written chain, without caps; N, C: chain ends. Non-standard residues stand in square brackets, D forms with d. dPhe(4-F) = N[C@H](Cc1ccc(F)cc1)C(=O)O
assay.metric: Protein Binding (%)
Field format: number, assumed %, no unit text.

Query Ac-RC[dA]R[dPhe(4-F)]R[dW]C-NH2 (disulfide 2-8) [CTX-1236] yields Protein Binding (%) of 45
